Each record here notes measured koff.
TARGET_UNDER_TEST: T1, Human TSLP (mammalian produced) (human, UniProt Q969D9 29-159)
T1 construct: also called Hu TSLP; huTSLPwtpHF
METHOD: SPR (Biacore 3000), antibody captured by anti-human Fc gamma, TSLP in solution, 25 C
Quick reminder: number only, in s⁻¹, skip the unit.

Some entries whose results are on file:
• A2 IgG1 (antibody, V domains shown, also called L2H2) VH: EVQLVESGGVVVQPGGSLRLSCAASGFTFDDFTMHWVRQAPGKGLEWVSLISWDGGSTYYADSVKGRFTISRDNSKNSLYMQMNSLRTEDSALYYCARGPYYYFYGMDVWGQGTTVTVSS VL: SSELTQDPAVSVALGQTVRITCQGDSLRTYYASWYQQKPGQAPILVISDKNNRPSGIPDRFSGSSSGNTASLTITGAQAEDEADYYCNSRDSSDNHLVVFGGGTKLTVL = 0.000349
• A3 IgG4 (antibody, V domains shown, also called L3H3) VH: QVQLVQSGAEVKKPGASVKVSCKASGYTFTDYYMYWVRQAPGQGPEWMGWINPNSGGTNYVQKFQGRVTMTRDTSISTAYMELSRMRSDDTAVYYCARDGGSSGWPLFAYWGLGTLVTVSS VL: QSVLTQPPSVSGAPGQRVTISCTGSSSNIGAGFDVHWYQQLPGTAPKLLIYDNNNRPSGVPDRFSGSKSGTSASLAITGLQAEDEADYYCQSYDSNLSGSIVVFGGGTKLTVL = 0.00027
• A2 IgG2 (antibody, V domains shown, also called L2H2) VH: EVQLVESGGVVVQPGGSLRLSCAASGFTFDDFTMHWVRQAPGKGLEWVSLISWDGGSTYYADSVKGRFTISRDNSKNSLYMQMNSLRTEDSALYYCARGPYYYFYGMDVWGQGTTVTVSS VL: SSELTQDPAVSVALGQTVRITCQGDSLRTYYASWYQQKPGQAPILVISDKNNRPSGIPDRFSGSSSGNTASLTITGAQAEDEADYYCNSRDSSDNHLVVFGGGTKLTVL = 0.000285

// next entry
-- ask # koff lookup, item A4 IgG4 (antibody, V domains shown, also called L4H4) VH: QVQLVQSGAEVKKPGASVKVSCKASGYIFTGDYMHWVRQAPGQGLEWMGWINPNSGGTNHARKFQGRVTMTRDTSISTAYMELSRLRSDDTAVYYCVRDRGTSGWPLFDYWGQGTLVTVSS VL: QSVLTQPPSVSGAPGQRVTISCTGSSSNIGAGFDVHWYQLLPGTAPKLLIFDNNNRPSGVPDRFSGSKSGTSASLAITGLQAEDEADYYCQSYDSNLSGSIVVFGGGTKLTVL
-- reply 0.00033
